These data points were gathered from patent US20200362047A1.

study.system: T1, human CD137 expressed on the surface of CHO cells (human, UniProt Q07011 24-255)
T1 construct: Also used for the Jurkat reporter cells that express human CD137 (functional rows); also called CHO human CD137 cells; CHO huCD137
T1 sequence (Q07011 24-255 limits assumed): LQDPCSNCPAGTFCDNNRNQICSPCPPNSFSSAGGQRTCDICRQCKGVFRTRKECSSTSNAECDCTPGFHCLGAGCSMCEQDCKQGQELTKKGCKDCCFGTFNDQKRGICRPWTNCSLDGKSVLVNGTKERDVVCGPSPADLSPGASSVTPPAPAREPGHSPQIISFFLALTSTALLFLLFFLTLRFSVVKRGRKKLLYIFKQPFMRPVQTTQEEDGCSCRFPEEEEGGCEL
protocol: FMAT, CHO human CD137 cells
measured.parameter: pEC50
Scale explanation: pEC50 corresponds to minus log10 of a concentration expressed in moles per litre.

Below, each entry is followed by its recorded pEC50 result.
{"binder": "Humabody VH 1.1 (VHH, human single VH domain; also called single domain antibody 1.1) VH: EVQLVESGGGLVQPGGSLRLSCAASGFTFSSHWMTWFRQAPGKGLEWVAHIKEDGSEKYYEDSVEGRFTVSRDNAKNSVYLQMNSLRAEDTAVYYCARGGDGYSDSHFGVDVWGQGTTVTVSSHHHHHH", "measured.parameter": "pEC50", "measured": 9.66}
{"binder": "Humabody VH 2.1 (VHH, human single VH domain) VH: EVQLVESGGGLVKPGGSLRVSCAASGFTFSDYYMSWFRQAPGKGLEWVSYISGSGDIIDYADSVKGRFTISRDNAKNSLYLQMNNLRAEDTAVYHCAREDSRLTGTTDFDNWGQGTLVTVSSHHHHHH", "measured.parameter": "pEC50", "measured": 9.19}

[Q] Report pEC50, nothing else, for this binder: Humabody VH 1.18 (VHH, human single VH domain) VH: EVQLVESGGGLVQPGGSLRLSCAASGFTFSTHWMNWARQAPGKELEWVANINQDGSEKYYVDSVEGRFTISRDNANNSLYLQMNSLRAEDTAVYYCARGGVGYGDSHFGMDVWGLGTTVTVSSHHHHHH
[A] 9.51

[Q] Report pEC50, nothing else, for this binder: Humabody VH 1.113 (VHH, human single VH domain) VH: EVQLVESGGGLVQPGGSLRLSCAASGFTLSNYWMNWVRQAPGKGLEWVANINQDGSERYYVDSVKGRFTISRDNAKNSLYLQMNSLRAEDTAVYYCARGGEGYGVDHYGLDVSGQGTTVTVSSHHHHHH
[A] 10.05

[Q] Report pEC50, nothing else, for this binder: Humabody VH 2.14 (VHH, human single VH domain) VH: EVQLVESGGGLVKPGGSLRLSCAASGFTFSDYYMTWFRQAPGKGLEWISYISGSGDTIDYAESVKGRFTISRDNAKNSLYLQMNSLRAEDTAVYYCAREDIRMPGTTDFDHWGQGTLVTVSSHHHHHH
[A] 9.51

[Q] Report pEC50, nothing else, for this binder: Humabody VH 1.78 (VHH, human single VH domain) VH: QVQLVESGGGLVQPGGSLRLSCAATGFTLSNYWMNWVRQAPGKGLEWVANINQDGSERYYVDSVKGRFTISRDNAKNSLYLQMSSLRAEDTAVYFCARGGEGYGVDHYGLDVSGQGTTVTVSSHHHHHH
[A] 9.49

[Q] Report pEC50, nothing else, for this binder: Humabody VH 1.52 (VHH, human single VH domain) VH: EVQLVESGGGLVQIGGSLRLSCAASGFTFSKYWMIWVRQAPEKGLEWVANINQDGSEKYYVDSVEGRFTISRDNANNSLFLQMNSLRAEDTAVYYCARGGDDYSISHFGMDVSGQGTRVTVSSHHHHHH
[A] 9.43

[Q] Report pEC50, nothing else, for this binder: Humabody VH 1.11 (VHH, human single VH domain) VH: EVQLVESGGGLVQPGGSLRLSCEASGFTFSDYWMNWARQAPGKGLEWVANIKEDGSEKYYVDSVEGRFTISRDNAKNSTYLQMNSLRAEDTAVYYCARGGAGYSMSHYGMDVWGQGTTVTVSSHHHHHH
[A] 9.57
